Target: T1, mouse GPC3 on stably transfected SK-HEP-1 cells (mouse, UniProt Q8CFZ4 25-553)
T1 construct: whole, on cells; also called SK-HEP-1::mouse GPC3; murine GPC3
T1 sequence (Q8CFZ4 25-553 limits assumed): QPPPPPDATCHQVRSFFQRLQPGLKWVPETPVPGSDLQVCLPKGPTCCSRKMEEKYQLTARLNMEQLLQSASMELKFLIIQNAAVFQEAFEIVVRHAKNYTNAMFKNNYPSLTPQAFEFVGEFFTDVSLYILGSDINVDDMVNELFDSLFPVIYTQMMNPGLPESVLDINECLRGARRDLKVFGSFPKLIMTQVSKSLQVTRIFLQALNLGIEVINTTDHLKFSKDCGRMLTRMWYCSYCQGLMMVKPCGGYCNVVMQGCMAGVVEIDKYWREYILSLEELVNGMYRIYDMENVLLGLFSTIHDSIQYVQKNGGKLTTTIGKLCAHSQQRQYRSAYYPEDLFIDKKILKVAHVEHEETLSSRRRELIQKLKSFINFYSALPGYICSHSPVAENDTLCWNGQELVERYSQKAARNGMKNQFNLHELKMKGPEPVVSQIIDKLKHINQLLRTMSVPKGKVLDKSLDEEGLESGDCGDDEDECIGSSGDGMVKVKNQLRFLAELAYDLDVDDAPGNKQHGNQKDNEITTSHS
Assay: MSD-based (ECL) cell binding assay on transfected SK-HEP-1 cells
Measurement label: EC50 (nM)
Number only, in nM; omit the unit.

lipocalin mutein of SEQ ID NO: 15 (designed binder, hNGAL (Lcn2) mutein; also called optimized GPC3 specific lipocalin mutein) QDSTSDLIPAPPLSKVPLQQNFQDNQFQGKWYVVGRAGNVGLREDKDPPKMRATIYELKEDKSYDVTGVRFGEKKIKYSIGTFVPGSQPGEFTLGQIKSQPGDTANLVRVVSTNYNQHAMVFFKEVYQNREIFFIILYGRTKELTSELKENFIRFSKSLGLPENHIVFPVPIDQAIDGSAWSHPQFEK    4.8

Given the entry lipocalin mutein of SEQ ID NO: 5 (designed binder, hNGAL (Lcn2) mutein; also called optimized GPC3 specific lipocalin mutein) QDSTSDLIPAPPLSKVPLQQNFQDNQFQGKWYVVGVAGNALLREDKDPLKMRATIYELKEDKSYDVTVVSFWRKKCHYKIGTFVPGSQPGEFTLGDIKSGPGQTSNLVRVVSTNYNQHAMVFFKEVRQNREWFAITLYGRTKELTSELKENFIRFSKSLGLPENHIVFPVPIDQCIDGSAWSHPQFEK , report its measured EC50.
25.6

And the next one, lipocalin mutein of SEQ ID NO: 8 (designed binder, hNGAL (Lcn2) mutein; also called optimized GPC3 specific lipocalin mutein) QDSTSDLIPAPPLSKVPLQQNFQDNQFQGKWYVVGRAGNVGLREDKDPPKMWATIYELKEDKSYDVTNVRFARKKCLYSIGTFVPGSQPGEFTLGQIKSEPGNTANLVRVVSTNYNQHAMVFFKEVYQNREIFFIILYGRTKELTSELKENFIRFSKSLGLPENHIVFPVPIDQCIDGSAWSHPQFEK ?
5.3

And the next one, lipocalin mutein of SEQ ID NO: 3 (designed binder, hNGAL (Lcn2) mutein; also called non-optimized GPC3-specific Lcn2 mutein; mother clone) QDSTSDLIPAPPLSKVPLQQNFQDNQFHGKWYVVGVAGNAMLREDKDPLKMRATIYELKEDKSYNVTGVSFWRKKCHYKIGTFVPGSQPGEFTLGDIKSGPGQTSNLVRVVSTNYNQHAMVFFKEVRQNREWFAITLYGRTKELTSELKENFIRFSKSLGLPENHIVFPVPIDQCIDGSAWSHPQFEK ?
29.8

This collection of values is drawn from patent US20180141988A1.
